# assay: Lab soil pesticide release testing
# Assay type: physicochemical
# experimental-conditions: Example 2 material; 14 days on humid soil; HPLC, LoQ 0.25 g/ha
# Description: 200 g of dry soil is placed in rectangular thin layer chromatography chamber of 27×7×26 cm with lid and 20 g water is added to the soil. […] After the set contact time with the soil the film sample is removed, moisture is dabbed off, loose dirt is brushed off and then the sample is dried at 60 C in an oven for 10 min. […] The flask is capped, stirred for 4 hours and the methanolic solution is then analyzed by HPLC. […]
assay-readout: Pesticide content of fumigant-free soil disinfestation materials after set time on Soil (g/ha)
Numeric answer only, unit g/ha assumed.

molecule	recorded-result
CO/C=C(/C(=O)OC)c1ccccc1Oc1cc(Oc2ccccc2C#N)ncn1 [Azoxystrobin]	0
COC(=O)c1c(Cl)nn(C)c1S(=O)(=O)NC(=O)Nc1nc(OC)cc(OC)n1 [Halosulfuron-methyl]	0
CNC(=O)O/N=C(\SC)C(=O)N(C)C [Oxamyl]	0
COCC(=O)N(c1c(C)cccc1C)C(C)C(=O)OC (centres unmarked) [Metalaxyl]	0

API: the following record is the query input.
Query block: Request the reported Pesticide content of fumigant-free soil disinfestation materials after set time on Soil associated with N#Cc1c[nH]cc1-c1cccc2c1OC(F)(F)O2 [Fludioxonil]
Result block: 17

###

Attribute: Pesticide content of fumigant-free soil disinfestation materials after set time on Soil
# assay: Lab soil pesticide release testing
# Type: physicochemical
# experimental-conditions: Example 3 material; 7 days on humid soil; HPLC, LoQ 0.25 g/ha
Give just the numeric value; g/ha need not be written.

molecule	recorded-result
COC(=O)c1c(Cl)nn(C)c1S(=O)(=O)NC(=O)Nc1nc(OC)cc(OC)n1	0

Consider the additional molecule presented here.
Query block: Value lookup for Pesticide content of fumigant-free soil disinfestation materials after set time on Soil; key = CC(C)(C)C(O)(CCc1ccc(Cl)cc1)Cn1cncn1 (centres unmarked)
Result block: 125

###

# assay: Lab soil pesticide release testing
# Type: physicochemical
# experimental-conditions: Example 1 material; 7 days on humid soil; HPLC, LoQ 0.25 g/ha
Quick reference: Pesticide content of fumigant-free soil disinfestation materials after set time on Soil of the listed items.
Express the result in g/ha but write the number alone.

Field: example entries. Status: answers known.
compound	result-unit	recorded-result
CO/C=C(/C(=O)OC)c1ccccc1Oc1cc(Oc2ccccc2C#N)ncn1	g/ha	12
COC(=O)c1c(Cl)nn(C)c1S(=O)(=O)NC(=O)Nc1nc(OC)cc(OC)n1	g/ha	0
N#Cc1c[nH]cc1-c1cccc2c1OC(F)(F)O2	g/ha	57
COCC(=O)N(c1c(C)cccc1C)C(C)C(=O)OC (centres unmarked) [Metalaxyl]	g/ha	12

Query block: So what's the measured Pesticide content of fumigant-free soil disinfestation materials after set time on Soil for this one? CNC(=O)O/N=C(\SC)C(=O)N(C)C
Result block: 0

###

Here, each record is paired with measured Pesticide content of fumigant-free soil disinfestation materials after set time on Soil data.
# assay: Lab soil pesticide release testing
# Type: physicochemical
# experimental-conditions: Example 4 material; 14 days on humid soil; HPLC, LoQ 0.25 g/ha
Kindly answer with a numeric value in g/ha, unit omitted.

Below: 3 molecules and their reported Pesticide content of fumigant-free soil disinfestation materials after set time on Soil.
molecule	result-unit	recorded-result
COCC(=O)N(c1c(C)cccc1C)[C@H](C)C(=O)OC	g/ha	0
CSc1nnc(C(C)(C)C)c(=O)n1N	g/ha	0
O=S(=O)(CCC(F)=C(F)F)c1ncc(Cl)s1	g/ha	0

Query block: Sample CCc1cccc(C)c1N(C(=O)CCl)[C@@H](C)COC — what was its Pesticide content of fumigant-free soil disinfestation materials after set time on Soil?
Result block: 0

Query block: One more molecule: O=C(NCc1ncc(C(F)(F)F)cc1Cl)c1c(Cl)cccc1Cl [Fluopicolide]
Result block: 30

###

Below, each entry is listed alongside its reported Pesticide content of fumigant-free soil disinfestation materials after set time on Soil.
# assay: Lab soil pesticide release testing
# Format: physicochemical
# experimental-conditions: Example 1 material; 14 days on humid soil; HPLC, LoQ 0.25 g/ha

Use these answered entries as a reference point.
compound	recorded-result
COC(=O)c1c(Cl)nn(C)c1S(=O)(=O)NC(=O)Nc1nc(OC)cc(OC)n1	0 g/ha
CNC(=O)O/N=C(\SC)C(=O)N(C)C	0 g/ha
CO/C=C(/C(=O)OC)c1ccccc1Oc1cc(Oc2ccccc2C#N)ncn1	0 g/ha
N#Cc1c[nH]cc1-c1cccc2c1OC(F)(F)O2	23 g/ha

Alright, here's another compound for you.
Query block: Recorded Pesticide content of fumigant-free soil disinfestation materials after set time on Soil of COCC(=O)N(c1c(C)cccc1C)C(C)C(=O)OC (centres unmarked) [Metalaxyl] , please.
Result block: 1 g/ha

###

# assay: Lab soil pesticide release testing
# Type: physicochemical
# experimental-conditions: Example 4 material; 7 days on humid soil; HPLC, LoQ 0.25 g/ha
// Pesticide content of fumigant-free soil disinfestation materials after set time on Soil lookup, one value per entry
Just the number in g/ha, nothing appended.

Below, 4 compounds whose answers are already recorded.
compound	result-unit	recorded-result
O=S(=O)(CCC(F)=C(F)F)c1ncc(Cl)s1	g/ha	0
CCc1cccc(C)c1N(C(=O)CCl)[C@@H](C)COC	g/ha	5
CSc1nnc(C(C)(C)C)c(=O)n1N	g/ha	0
COCC(=O)N(c1c(C)cccc1C)[C@H](C)C(=O)OC	g/ha	19

Lab note: next compound to report on.
Query block: I am curious: what Pesticide content of fumigant-free soil disinfestation materials after set time on Soil value has been reported for O=C(NCc1ncc(C(F)(F)F)cc1Cl)c1c(Cl)cccc1Cl [Fluopicolide] ?
Result block: 60

###

# assay: Lab soil pesticide release testing
# Type: physicochemical
# experimental-conditions: Example 1 material; 0 days (initial content); HPLC, LoQ 0.25 g/ha
Parameter: Pesticide content of fumigant-free soil disinfestation materials after set time on Soil. Scope: all listed entries.
Please append the unit to your numeric answer.

compound	recorded-result
COC(=O)c1c(Cl)nn(C)c1S(=O)(=O)NC(=O)Nc1nc(OC)cc(OC)n1	35 g/ha
CNC(=O)O/N=C(\SC)C(=O)N(C)C	1800 g/ha
N#Cc1c[nH]cc1-c1cccc2c1OC(F)(F)O2	244 g/ha
COCC(=O)N(c1c(C)cccc1C)C(C)C(=O)OC (centres unmarked) [Metalaxyl]	936 g/ha

Here is another compound to look at.
Query block: // Pesticide content of fumigant-free soil disinfestation materials after set time on Soil lookup, key: CO/C=C(/C(=O)OC)c1ccccc1Oc1cc(Oc2ccccc2C#N)ncn1
Result block: 96 g/ha

###

Items are presented alongside their recorded Pesticide content of fumigant-free soil disinfestation materials after set time on Soil.
# assay: Lab soil pesticide release testing
# Format: physicochemical
# experimental-conditions: Example 2 material; 7 days on humid soil; HPLC, LoQ 0.25 g/ha
Quick reminder: number only, in g/ha, skip the unit.

Some solved cases for reference:
molecule	recorded-result
COCC(=O)N(c1c(C)cccc1C)C(C)C(=O)OC (centres unmarked) [Metalaxyl]	15
CO/C=C(/C(=O)OC)c1ccccc1Oc1cc(Oc2ccccc2C#N)ncn1 [Azoxystrobin]	9
N#Cc1c[nH]cc1-c1cccc2c1OC(F)(F)O2 [Fludioxonil]	53
COC(=O)c1c(Cl)nn(C)c1S(=O)(=O)NC(=O)Nc1nc(OC)cc(OC)n1 [Halosulfuron-methyl]	0

Query block: If you can, please state the reported Pesticide content of fumigant-free soil disinfestation materials after set time on Soil value of CNC(=O)O/N=C(\SC)C(=O)N(C)C [Oxamyl] .
Result block: 0

###

# assay: Lab soil pesticide release testing
# Assay type: physicochemical
# experimental-conditions: Example 3 material; 14 days on humid soil; HPLC, LoQ 0.25 g/ha
Some molecules, each annotated with its measured Pesticide content of fumigant-free soil disinfestation materials after set time on Soil.
Please give a number only; it is taken to be in g/ha.

molecule	result-unit	recorded-result
CC(C)(C)C(O)(CCc1ccc(Cl)cc1)Cn1cncn1 (centres unmarked)	g/ha	45
CON=C(C(=O)OC)c1ccccc1CON=C(C)c1cccc(C(F)(F)F)c1	g/ha	35
COC(=O)c1c(Cl)nn(C)c1S(=O)(=O)NC(=O)Nc1nc(OC)cc(OC)n1	g/ha	0
O=C(NCCc1ncc(C(F)(F)F)cc1Cl)c1ccccc1C(F)(F)F	g/ha	0

Query block: Quick one: Pesticide content of fumigant-free soil disinfestation materials after set time on Soil of Cc1nn(-c2cc(NS(C)(=O)=O)c(Cl)cc2Cl)c(=O)n1C(F)F ?
Result block: 0

###

# assay: Lab soil pesticide release testing
# Assay type: physicochemical
# experimental-conditions: Example 3 material; 0 days (initial content); HPLC, LoQ 0.25 g/ha
// reported Pesticide content of fumigant-free soil disinfestation materials after set time on Soil for each item listed
Please state the figure in g/ha; there is no need to write the unit.

Below are worked cases with known answers.
compound	recorded-result
Cc1nn(-c2cc(NS(C)(=O)=O)c(Cl)cc2Cl)c(=O)n1C(F)F	202
CC(C)(C)C(O)(CCc1ccc(Cl)cc1)Cn1cncn1 (centres unmarked)	954
CON=C(C(=O)OC)c1ccccc1CON=C(C)c1cccc(C(F)(F)F)c1	238
O=C(NCCc1ncc(C(F)(F)F)cc1Cl)c1ccccc1C(F)(F)F	91

Switching to the query record.
Query block: Item under review: COC(=O)c1c(Cl)nn(C)c1S(=O)(=O)NC(=O)Nc1nc(OC)cc(OC)n1 . Reported Pesticide content of fumigant-free soil disinfestation materials after set time on Soil?
Result block: 35

Source listed as patent US11992009B2.
